This section presents binders with their documented Top (MFI) values.
Biological target: T1, human AMHRII (anti-Mullerian hormone receptor type 2) (human, UniProt Q16671 18-573)
T1 construct: whole, on cells; also called AMHR2; human AMHR2
T1 sequence (looked up): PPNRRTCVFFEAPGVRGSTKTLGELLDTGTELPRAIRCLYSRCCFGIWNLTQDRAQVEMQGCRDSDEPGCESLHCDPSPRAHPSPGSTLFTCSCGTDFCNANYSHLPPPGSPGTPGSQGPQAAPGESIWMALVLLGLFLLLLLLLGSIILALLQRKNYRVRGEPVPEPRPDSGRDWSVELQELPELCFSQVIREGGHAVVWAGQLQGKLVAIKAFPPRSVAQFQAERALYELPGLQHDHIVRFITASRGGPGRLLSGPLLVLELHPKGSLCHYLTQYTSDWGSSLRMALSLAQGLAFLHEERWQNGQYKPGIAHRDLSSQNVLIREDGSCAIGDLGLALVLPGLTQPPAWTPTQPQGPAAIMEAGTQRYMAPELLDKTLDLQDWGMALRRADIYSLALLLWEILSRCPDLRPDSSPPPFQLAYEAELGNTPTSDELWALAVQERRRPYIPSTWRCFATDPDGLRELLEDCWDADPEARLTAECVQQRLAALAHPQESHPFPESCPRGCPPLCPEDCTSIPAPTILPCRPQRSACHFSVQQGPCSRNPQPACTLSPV
Assay: FACS on Rko cells over-expressing human AMHR2
Write the value in MFI as a bare number.

Worked examples, 2 binders total:
31D9B3 VH1-VL2.2 hIgG1 (antibody, V domains shown, Humanized, PTM de-risked (VL G(30D)R), human IgG1; also called 31D9B3 VH1-VL2.2 hlgG1) VH: QVQLVQSGAEVKKPGASVKVSCKASGYTFTDYWVSWVRQAPGQGLEWMGEIYPKNGVSNFNEKFKGRVTMTTDTSTSTAYMELRSLRSDDTAVYYCARQRDYWGQGTLVTVSS VL: DVVMTQSPLSLPVTLGQPASISCRSSQSLEYGDRYTYLEWYLQRPGQSPRLLIYGVSNRFSGVPDRFSGSGSGTDFTLKISRVEAEDVGVYYCFQATHDPNTFGQGTKLEIK	17200
31D9B3 H1L2 hIgG1 (antibody, V domains shown, Humanized, human IgG1; also called 31D9B3 H1L2 hlgG1; 31D9B3 VH1-VL2 hlgG1) VH: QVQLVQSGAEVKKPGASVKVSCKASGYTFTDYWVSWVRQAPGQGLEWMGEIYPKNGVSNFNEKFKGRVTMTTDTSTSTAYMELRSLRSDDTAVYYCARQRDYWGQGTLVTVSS VL: DVVMTQSPLSLPVTLGQPASISCRSSQSLEYGDGYTYLEWYLQRPGQSPRLLIYGVSNRFSGVPDRFSGSGSGTDFTLKISRVEAEDVGVYYCFQATHDPNTFGQGTKLEIK	18300

Given the binder 31D9B3 VH1.2-VL2 hIgG1 (antibody, V domains shown, Humanized, PTM de-risked (VH G55D), human IgG1; also called 31D9B3 VH1.2-VL2 hlgG1) VH: QVQLVQSGAEVKKPGASVKVSCKASGYTFTDYWVSWVRQAPGQGLEWMGEIYPKNDVSNFNEKFKGRVTMTTDTSTSTAYMELRSLRSDDTAVYYCARQRDYWGQGTLVTVSS VL: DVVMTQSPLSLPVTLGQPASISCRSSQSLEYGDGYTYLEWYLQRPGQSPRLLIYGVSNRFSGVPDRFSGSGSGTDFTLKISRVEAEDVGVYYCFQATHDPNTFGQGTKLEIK , what is its reported Top (MFI)?
18200
